Values compiled from patent US20120316071A1.

Target: T1, rHuman EGF R/Fc Chimera, CF (R&D Systems Cat#344-ER) (human, UniProt P00533 25-645)
T1 construct: Bought recombinant protein; also called epidermal growth factor receptor
Test: ECL multispot (MSD) binding assay, antigen spotted on plate;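 note: purified Fab incubated 1 h at 20 °C on antigen spots, detected with TAG-labelled antibody, electrochemiluminescence compared with each well's blank, signal-to-blank ratio ≥4 counted as hit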
ECL signal: recorded values
Number, no unit, nothing else.

The recorded ECL signal for entry Fab VH1-46_IGHD6-6*01_IGHJ1*01 S102A/S103P/S104F/H111F (APFF) & L6_IGKJ1*01 S31F (Fab, V domains shown, Tested as Fab (CH1 with His6/Flag tags, kappa CL) made in E. coli; also called APFF / S31F) VH: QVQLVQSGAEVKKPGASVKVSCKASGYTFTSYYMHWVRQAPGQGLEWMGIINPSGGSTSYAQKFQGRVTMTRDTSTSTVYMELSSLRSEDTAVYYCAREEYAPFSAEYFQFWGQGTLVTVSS VL: EIVLTQSPATLSLSPGERATLSCRASQSVSFYLAWYQQKPGQAPRLLIYDASNRATGIPARFSGSGSGTDFTLTISSLEPEDFAVYYCQQRSNWPPWTFGQGTKVEIKR equals 342

The recorded ECL signal for entry Fab VH1-46_IGHD6-6*01_IGHJ1*01 S102A/S103P/S104F/H111F (APFF) & L6_IGKJ1*01 S31V (Fab, V domains shown, Tested as Fab (CH1 with His6/Flag tags, kappa CL) made in E. coli; also called APFF / S31V) VH: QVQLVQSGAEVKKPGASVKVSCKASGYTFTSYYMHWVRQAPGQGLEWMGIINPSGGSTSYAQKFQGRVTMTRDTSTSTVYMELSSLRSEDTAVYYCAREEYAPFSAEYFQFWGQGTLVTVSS VL: EIVLTQSPATLSLSPGERATLSCRASQSVSVYLAWYQQKPGQAPRLLIYDASNRATGIPARFSGSGSGTDFTLTISSLEPEDFAVYYCQQRSNWPPWTFGQGTKVEIKR equals 363

Lab note: next binder to report on.
The recorded ECL signal for entry Fab VH1-46_IGHD6-6*01_IGHJ1*01 S102A/S103P/S104F/H111F (APFF) & L6_IGKJ1*01 S31P (Fab, V domains shown, Tested as Fab (CH1 with His6/Flag tags, kappa CL) made in E. coli; also called APFF / S31P) VH: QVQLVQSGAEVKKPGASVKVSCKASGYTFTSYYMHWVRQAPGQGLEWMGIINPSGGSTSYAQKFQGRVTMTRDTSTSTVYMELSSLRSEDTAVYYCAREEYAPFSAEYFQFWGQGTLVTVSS VL: EIVLTQSPATLSLSPGERATLSCRASQSVSPYLAWYQQKPGQAPRLLIYDASNRATGIPARFSGSGSGTDFTLTISSLEPEDFAVYYCQQRSNWPPWTFGQGTKVEIKR equals 488
